I'd be grateful if you could share measured viability at 10 µM for these entries.
Test system: DU-145
assay.name: Cytotoxicity against human DU145 cells assessed as cell survival at 10 uM after 72 hrs by calcein AM assay
Type: functional
condition.summary: DU-145, 72 h, read-out: Activity
Give bare numbers, in %.

Consider the reported viability at 10 µM for these compounds:
[[record]]
compound = "N=C(N)c1ccc(Oc2cc(Oc3ccc(C(=N)N)cc3)cc(C(=O)N3CCC4CCCCC4C3)c2)cc1 (centres undefined)"
display_unit = "%"
experimental_value = 78

[[record]]
compound = "N=C(N)c1ccc(Oc2cc(Oc3ccc(C(=N)N)cc3)cc(C(=O)O[C@H]3CC[C@H](N)CC3)c2)cc1"
display_unit = "%"
experimental_value = 92

[[record]]
compound = "N=C(N)c1ccc(Oc2cc(Oc3ccc(C(=N)N)cc3)cc(C(=O)N[C@H]3CC[C@H](N)CC3)c2)cc1"
display_unit = "%"
experimental_value = 100


Would you kindly look at the next entry?
Recorded viability at 10 µM of N=C(N)c1ccc(Oc2cc(NC(=O)[C@H]3CC[C@H](N)CC3)cc(Oc3ccc(C(=N)N)cc3)c2)cc1 , please.
100

====

assay.target: Suppressor of tumorigenicity 14 protein (Homo sapiens)
assay.name: Inhibition of recombinant matriptase (unknown origin) using Boc-Gln-Ala-Arg-7-amido-4-methyl coumarin hydrobromide
pKi: −log10 of the molar value.
Classification field: 1.0 = pKi at or over 7; 0.0 = pKi under 7.

Field: example entries. Status: answers known.
[[record]]
molecule = "N=C(N)c1ccc(Oc2cc(Oc3ccc(C(=N)N)cc3)cc(C(=O)NC3CCC(O)CC3)c2)cc1 (stereo unspecified)"
qualitative_label = 0.0

[[record]]
molecule = "N=C(N)c1ccc(Oc2cc(NC(=O)[C@H]3CC[C@H](N)CC3)cc(Oc3ccc(C(=N)N)cc3)c2)cc1"
qualitative_label = 1.0

[[record]]
molecule = "CCOC(=O)N1CCC(NC(=O)c2cc(Oc3ccc(C(=N)N)cc3)cc(Oc3ccc(C(=N)N)cc3)c2)CC1"
qualitative_label = 0.0


API: above_or_equal(metric=pKi, cutoff=7) for item N=C(N)c1ccc(Oc2cc(Oc3ccc(C(=N)N)cc3)cc(C(=O)NCC3CCCCC3)c2)cc1
0.0

Do the same for N=C(N)c1ccc(Oc2cc(Oc3ccc(C(=N)N)cc3)cc(C(=O)Nc3ccc(F)cc3)c2)cc1 please
0.0

Try N=C(N)c1ccc(Oc2ccc(Oc3ccc(C(=N)N)cc3)cc2)cc1 next.
0.0

N=C(N)c1ccc(Oc2cc(NC(=O)C3CCN(CCO)CC3)cc(Oc3ccc(C(=N)N)cc3)c2)cc1 , same question.
1.0

Now this one: N=C(N)c1ccc(Oc2cc(Oc3ccc(C(=N)N)cc3)cc(C(=O)NC3CCN(CCO)CC3)c2)cc1
0.0

# repeat for N=C(N)c1ccc(Oc2cc(NS(=O)(=O)c3ccc4ccccc4c3)cc(Oc3ccc(C(=N)N)cc3)c2)cc1
0.0

====

assay.target: Suppressor of tumorigenicity 14 protein (Homo sapiens, UniProt Q9Y5Y6)
Sequence (Q9Y5Y6 whole entry): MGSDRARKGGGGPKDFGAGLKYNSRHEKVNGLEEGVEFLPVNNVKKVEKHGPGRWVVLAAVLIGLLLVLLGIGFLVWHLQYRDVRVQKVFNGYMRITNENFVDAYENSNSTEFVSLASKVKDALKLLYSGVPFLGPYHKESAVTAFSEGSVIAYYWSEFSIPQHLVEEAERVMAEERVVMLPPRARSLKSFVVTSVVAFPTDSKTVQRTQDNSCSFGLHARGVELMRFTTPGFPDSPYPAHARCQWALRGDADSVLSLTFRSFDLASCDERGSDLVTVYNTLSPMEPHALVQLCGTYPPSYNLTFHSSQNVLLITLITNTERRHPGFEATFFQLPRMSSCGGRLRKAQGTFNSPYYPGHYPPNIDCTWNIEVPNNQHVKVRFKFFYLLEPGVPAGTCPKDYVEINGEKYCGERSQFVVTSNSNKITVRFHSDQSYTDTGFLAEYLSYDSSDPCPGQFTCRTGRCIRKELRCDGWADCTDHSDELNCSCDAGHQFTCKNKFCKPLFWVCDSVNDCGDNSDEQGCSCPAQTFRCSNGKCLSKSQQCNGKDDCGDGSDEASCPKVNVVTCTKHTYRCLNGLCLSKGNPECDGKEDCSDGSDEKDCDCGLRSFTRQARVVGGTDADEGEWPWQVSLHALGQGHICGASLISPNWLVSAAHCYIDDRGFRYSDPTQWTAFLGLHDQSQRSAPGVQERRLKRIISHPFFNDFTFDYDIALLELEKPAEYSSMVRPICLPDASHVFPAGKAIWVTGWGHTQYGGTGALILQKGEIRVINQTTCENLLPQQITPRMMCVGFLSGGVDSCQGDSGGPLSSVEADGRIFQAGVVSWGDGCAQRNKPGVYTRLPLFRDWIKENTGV
assay.name: Inhibition of recombinant matriptase (unknown origin) using Boc-Gln-Ala-Arg-7-amido-4-methyl coumarin hydrobromide
Exercise: state measured pKi for each of the compounds provided.
One number for each entry, as −log10 of the molar value.

Check out these entries, answers already filled in.
[[record]]
compound = "N=C(N)c1ccc(Oc2cc(OCc3ccc(Br)nc3)cc(C(=O)N[C@H]3CC[C@H](N)CC3)c2)cc1"
assay_target = "Suppressor of tumorigenicity 14 protein (Homo sapiens, UniProt Q9Y5Y6)"
assay_endpoint = "pKi"
experimental_value = 6.10

[[record]]
compound = "N=C(N)c1ccc(COc2cc(OCc3ccc(C(=N)N)cc3)cc(C(=O)N[C@H]3CC[C@H](N)CC3)c2)cc1"
assay_target = "Suppressor of tumorigenicity 14 protein (Homo sapiens, UniProt Q9Y5Y6)"
assay_endpoint = "pKi"
experimental_value = 7.64

[[record]]
compound = "N=C(N)c1ccc(Oc2cc(Oc3ccc(C(N)=O)cc3)cc(C(=O)N[C@H]3CC[C@H](N)CC3)c2)cc1"
assay_target = "Suppressor of tumorigenicity 14 protein (Homo sapiens, UniProt Q9Y5Y6)"
assay_endpoint = "pKi"
experimental_value = 6.08


Hey, quick one: what's pKi for each of these?
1. N=C(N)c1ccc(Oc2cc(N)cc(Oc3ccc(C(=N)N)cc3)c2)cc1
2. N=C(N)c1ccc(Oc2cc(Oc3ccc(C(=N)N)cc3)cc(C(=O)NCC3CCC(O)CC3)c2)cc1 (stereo not drawn)
3. N=C(N)c1ccc(Oc2cc(Oc3ccc(N)nc3)cc(C(=O)N[C@H]3CC[C@H](N)CC3)c2)cc1
4. NCc1ccc(Oc2cc(Oc3ccc(CN)cc3)cc(C(=O)N[C@H]3CC[C@H](N)CC3)c2)cc1
5. N=C(N)c1ccc(Oc2cc(OCc3ccc(Cl)cc3)cc(C(=O)N[C@H]3CC[C@H](N)CC3)c2)cc1

1. 5.97
2. 5.93
3. 5.69
4. 5.77
5. 6.33

====

assay.target: Coagulation factor X (Bos taurus, UniProt P00743)
Sequence (P00743 41-180 limits assumed): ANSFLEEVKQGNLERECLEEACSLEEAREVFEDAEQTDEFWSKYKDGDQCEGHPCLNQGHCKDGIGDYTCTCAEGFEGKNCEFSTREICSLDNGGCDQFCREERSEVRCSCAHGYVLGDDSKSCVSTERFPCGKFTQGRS
Sequence (P00743 234-492 limits assumed): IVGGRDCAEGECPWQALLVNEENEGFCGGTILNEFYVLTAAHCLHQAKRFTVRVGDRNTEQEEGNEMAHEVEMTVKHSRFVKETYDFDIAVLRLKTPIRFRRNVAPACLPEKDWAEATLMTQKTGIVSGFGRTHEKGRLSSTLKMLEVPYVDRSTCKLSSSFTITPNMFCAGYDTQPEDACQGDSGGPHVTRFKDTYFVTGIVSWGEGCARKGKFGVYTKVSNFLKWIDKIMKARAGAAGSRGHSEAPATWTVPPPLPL
assay.name: Inhibition of bovine plasma factor 10a using CH3OCO-D-CHA-Gly-Arg-pNA.AcoH substrate
Give log10(Ki) for every item shown.
Note the log scale: values are log10 of Ki expressed in µM.

The cases that follow already have their log10(Ki) on record.
[[record]]
compound = "N=C(N)c1ccc(Oc2cc(OCc3cccc(C(=N)N)c3)cc(C(=O)N[C@H]3CC[C@H](N)CC3)c2)cc1"
experimental_value = 0.06

[[record]]
compound = "N=C(N)c1ccc(Oc2cc(Oc3ccc(C(=N)N)cc3)cc(C(=O)N3CCC4CCCCC4C3)c2)cc1 (centres undefined)"
experimental_value = -0.47

[[record]]
compound = "N=C(N)c1ccc(Oc2cc(NC(=O)[C@H]3CC[C@H](N)CC3)cc(Oc3ccc(C(=N)N)cc3)c2)cc1"
experimental_value = -0.30


For each listed entry, give its log10(Ki).
1. N=C(N)c1ccc(Oc2cc(NS(=O)(=O)c3ccc4ccccc4c3)cc(Oc3ccc(C(=N)N)cc3)c2)cc1
2. N=C(N)c1ccc(Oc2cc(Oc3ccc(C(=N)N)cc3)cc(C(=O)NC3CCC(O)CC3)c2)cc1 (centres undefined)
3. CC1CCC(NC(=O)c2cc(Oc3ccc(C(=N)N)cc3)cc(Oc3ccc(C(=N)N)cc3)c2)CC1 (centres undefined)
4. N=C(N)c1cccc(COc2cc(OCc3cccc(C(=N)N)c3)cc(C(=O)N[C@H]3CC[C@H](N)CC3)c2)c1
5. N=C(N)c1ccc(Oc2cc(Oc3ccc(NC(=O)CCN)cc3)cc(C(=O)N[C@H]3CC[C@H](N)CC3)c2)cc1
6. N=C(N)c1ccc(Oc2cc(Oc3ccc(C(=N)N)cc3)cc(C(=O)NC3CCN(CCO)CC3)c2)cc1

[-0.06, -0.27, -0.55, -0.80, 0.55, -0.19]
